Hey, just so you know, these numbers are from ChEMBL document CHEMBL1961873.

# ASSAY_TARGET: Serine/threonine-protein kinase Sgk1 (Homo sapiens) (UniProt O00141);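 also: mean percent inhibition of SGK1, from the GSK PKIS screening panel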
# Sequence (whole entry): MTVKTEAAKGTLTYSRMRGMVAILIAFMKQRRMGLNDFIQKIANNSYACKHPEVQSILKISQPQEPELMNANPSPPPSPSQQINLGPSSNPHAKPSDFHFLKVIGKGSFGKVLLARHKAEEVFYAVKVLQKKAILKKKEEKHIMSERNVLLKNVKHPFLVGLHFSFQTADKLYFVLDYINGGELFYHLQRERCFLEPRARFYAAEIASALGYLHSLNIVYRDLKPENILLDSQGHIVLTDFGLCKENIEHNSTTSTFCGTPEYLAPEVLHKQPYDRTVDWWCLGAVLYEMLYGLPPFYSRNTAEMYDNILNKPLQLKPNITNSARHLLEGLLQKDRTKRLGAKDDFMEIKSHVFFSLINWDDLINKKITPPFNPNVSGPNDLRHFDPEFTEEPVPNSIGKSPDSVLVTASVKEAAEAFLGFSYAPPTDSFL
# RUN_CONDITIONS: at 1 µM
Param threshold (3%) applies to inhibition; output met when value >= threshold, not met when value < threshold.

The following compounds have reported results that may help.
INSERT INTO assay_data (smiles, group_label) VALUES
  ('[O-][S+]1CCN(Cc2ccc(-c3ccc4ncnc(Nc5ccc(OCc6ccccc6)c(Cl)c5)c4c3)o2)CC1', 'not met'),
  ('COc1ccc(-c2nn3ncccc3c2-c2ccnc(Nc3cccc(C(F)(F)F)c3)n2)cc1', 'not met'),
  ('CC(C)c1ccc(Nc2nccc(-c3cnn4ncccc34)n2)cc1', 'met'),
  ('CN(c1ccc(NC(=O)Nc2ccc(OC(F)(F)F)cc2)cc1)c1ccnc(Nc2cccc(S(N)(=O)=O)c2)n1', 'not met');

Shift focus to the following entry.
q: Check the entry COC(=O)c1cncc(/C=C/c2c(C)cc(O)cc2C)c1 : does inhibition equal or exceed 3%?
a: met
